- Test system: Klebsiella pneumoniae
- assay.comment: Antibacterial activity against tetracycline-resistant Klebsiella pneumoniae 153
- Assay type: functional
Reported MIC values for a set of compounds

line.notation: CN(C)[C@@H]1C(O)=C(C(N)=O)C(=O)[C@@]2(O)C(O)=C3C(=O)c4c(O)c(NC(=O)CN5CC[C@H](F)C5)cc(F)c4C[C@H]3C[C@@H]12
unit.of.measure: µg/mL
value.operator: =
MIC: 32
//
line.notation: CN(C)[C@@H]1CCN(CC(=O)Nc2cc(F)c3c(c2O)C(=O)C2=C(O)[C@]4(O)C(=O)C(C(N)=O)=C(O)[C@@H](N(C)C)[C@@H]4C[C@@H]2C3)C1
unit.of.measure: µg/mL
value.operator: >
MIC: 32
//
line.notation: CC(C)NCC(=O)Nc1cc(F)c2c(c1O)C(=O)C1=C(O)[C@]3(O)C(=O)C(C(N)=O)=C(O)[C@@H](N(C)C)[C@@H]3C[C@@H]1C2
unit.of.measure: µg/mL
value.operator: =
MIC: 4

* * *

- assay.comment: Elimination half life in Sprague-Dawley rat at 10 mg/kg, po by LC/MS-MS analysis
- Format: ADME, organism-based
- Parameters: dose 10 mg/kg, route oral
- test.settings: in vivo, read-out: beta t1/2 (converted)
Recorded half-life values for a group of compounds are listed next.

line.notation: CN(C)[C@@H]1C(O)=C(C(N)=O)C(=O)[C@@]2(O)C(O)=C3C(=O)c4c(O)c(NC(=O)CN5CCCC5)cc(F)c4C[C@H]3C[C@@H]12
half-life: 6.9 h

line.notation: CN(C)c1cc(NC(=O)CNC(C)(C)C)c(O)c2c1C[C@H]1C[C@H]3[C@H](N(C)C)C(O)=C(C(N)=O)C(=O)[C@@]3(O)C(O)=C1C2=O
half-life: 3.98 h

* * *

- Test system: Klebsiella pneumoniae
- assay.comment: Antibacterial activity against tetracycline-resistant Klebsiella pneumoniae 153
- Assay type: functional
experimental.readout: MIC

molecule: CN(C)[C@@H]1C(O)=C(C(N)=O)C(=O)[C@@]2(O)C(O)=C3C(=O)c4c(O)c(NC(=O)CN5Cc6ccccc6C5)cc(F)c4C[C@H]3C[C@@H]12
observed.value: 32 µg/mL
//
molecule: CN(C)[C@@H]1C(O)=C(C(N)=O)C(=O)[C@@]2(O)C(O)=C3C(=O)c4c(O)c(NC(=O)CN5CC6CCCC6C5)cc(F)c4C[C@H]3C[C@@H]12 (stereo partly drawn)
observed.value: 4 µg/mL
//
molecule: CN(C)[C@@H]1C(O)=C(C(N)=O)C(=O)[C@@]2(O)C(O)=C3C(=O)c4c(O)c(NC(=O)CN5CCCC5)cc(F)c4C[C@H]3C[C@@H]12 [ERAVACYCLINE]
observed.value: 0.5 µg/mL

* * *

- Test system: Klebsiella pneumoniae
- assay.comment: Antibacterial activity against tetracycline-resistant Klebsiella pneumoniae 153
- Type: functional

compound: CN(C)[C@@H]1C(O)=C(C(N)=O)C(=O)[C@@]2(O)C(O)=C3C(=O)c4c(O)c(NC(=O)CN5CCCCC5)cc(F)c4C[C@H]3C[C@@H]12
MIC: 4 µg/mL

compound: CN(C)[C@@H]1C(O)=C(C(N)=O)C(=O)[C@@]2(O)C(O)=C3C(=O)c4c(O)cccc4[C@@](C)(O)[C@H]3C[C@@H]12 [TETRACYCLINE]
MIC: > 64 µg/mL

compound: CN(C)[C@@H]1C(O)=C(C(N)=O)C(=O)[C@@]2(O)C(O)=C3C(=O)c4c(O)c(NC(=O)CN5CCOCC5)cc(F)c4C[C@H]3C[C@@H]12
MIC: > 32 µg/mL

* * *

- assay.comment: AUClast in Sprague-Dawley rat at 1 mg/kg, iv by LC/MS-MS analysis
- Type: ADME, organism-based
- Design: time 0 - last, dose 1 mg/kg, route intravenous
- test.settings: plasma

line.notation: CN(C)c1cc(NC(=O)CNC(C)(C)C)c(O)c2c1C[C@H]1C[C@H]3[C@H](N(C)C)C(O)=C(C(N)=O)C(=O)[C@@]3(O)C(O)=C1C2=O
AUC(0-t) [ng·h/mL]: 1050
//
line.notation: CN(C)[C@@H]1C(O)=C(C(N)=O)C(=O)[C@@]2(O)C(O)=C3C(=O)c4c(O)c(NC(=O)CN5CCCC5)cc(F)c4C[C@H]3C[C@@H]12
AUC(0-t) [ng·h/mL]: 1770
//
line.notation: CN(C)[C@@H]1C(O)=C(C(N)=O)C(=O)[C@@]2(O)C(O)=C3C(=O)c4c(O)cccc4[C@@](C)(O)[C@H]3C[C@@H]12
AUC(0-t) [ng·h/mL]: 3080

* * *

- System: Acinetobacter baumannii
- assay.comment: Antibacterial activity against Acinetobacter baumannii ATCC 19606 110
- Format: functional
Reported MIC values for a set of compounds
experimental.readout: MIC

line.notation: CN(C)[C@@H]1C(O)=C(C(N)=O)C(=O)[C@@]2(O)C(O)=C3C(=O)c4c(O)c(NC(=O)CNc5ccccc5)cc(F)c4C[C@H]3C[C@@H]12
observed.value: > 8 mg/L

line.notation: CN(C)[C@@H]1C(O)=C(C(N)=O)C(=O)[C@@]2(O)C(O)=C3C(=O)c4c(O)c(NC(=O)CNCC(F)(F)F)cc(F)c4C[C@H]3C[C@@H]12
observed.value: > 2 mg/L

line.notation: CN(C)[C@@H]1CCN(CC(=O)Nc2cc(F)c3c(c2O)C(=O)C2=C(O)[C@]4(O)C(=O)C(C(N)=O)=C(O)[C@@H](N(C)C)[C@@H]4C[C@@H]2C3)C1
observed.value: > 32 mg/L

* * *

- Test system: Pseudomonas aeruginosa
- assay.comment: Antibacterial activity against Pseudomonas aeruginosa ATCC 111 27853
- Type: functional
Here the recorded MIC is given for each entry.
experimental.readout: MIC

compound: CN(C)c1cc(NC(=O)CNC(C)(C)C)c(O)c2c1C[C@H]1C[C@H]3[C@H](N(C)C)C(O)=C(C(N)=O)C(=O)[C@@]3(O)C(O)=C1C2=O [TIGECYCLINE]
assay.target: Pseudomonas aeruginosa
observed.value: 16 µg/mL

compound: CN(C)[C@@H]1C(O)=C(C(N)=O)C(=O)[C@@]2(O)C(O)=C3C(=O)c4c(O)c(NC(=O)CNc5ccccc5)cc(F)c4C[C@H]3C[C@@H]12
assay.target: Pseudomonas aeruginosa
observed.value: > 32 µg/mL

compound: CN(C)[C@@H]1C(O)=C(C(N)=O)C(=O)[C@@]2(O)C(O)=C3C(=O)c4c(O)c(NC(=O)CN5CC[C@H](F)C5)cc(F)c4C[C@H]3C[C@@H]12
assay.target: Pseudomonas aeruginosa
observed.value: > 32 µg/mL

* * *

- Tested on: Staphylococcus aureus
- assay.comment: Antibacterial activity against tetracycline- and methicillin-resistant Staphylococcus aureus 161
- Type: functional
Each entry below lists one item and its recorded MIC value.

line.notation: CN(C)[C@@H]1C(O)=C(C(N)=O)C(=O)[C@@]2(O)C(O)=C3C(=O)c4c(O)c(NC(=O)CNc5cccnc5)cc(F)c4C[C@H]3C[C@@H]12
MIC: > 32 µg/mL

line.notation: CN(C)[C@@H]1CCN(CC(=O)Nc2cc(F)c3c(c2O)C(=O)C2=C(O)[C@]4(O)C(=O)C(C(N)=O)=C(O)[C@@H](N(C)C)[C@@H]4C[C@@H]2C3)C1
MIC: > 32 µg/mL

line.notation: CC(C)NCC(=O)Nc1cc(F)c2c(c1O)C(=O)C1=C(O)[C@]3(O)C(=O)C(C(N)=O)=C(O)[C@@H](N(C)C)[C@@H]3C[C@@H]1C2
MIC: 0.25 µg/mL

line.notation: CN(C)[C@@H]1C(O)=C(C(N)=O)C(=O)[C@@]2(O)C(O)=C3C(=O)c4c(O)c(NC(=O)CN5CC[C@H](F)C5)cc(F)c4C[C@H]3C[C@@H]12
MIC: 0.5 µg/mL

line.notation: CN(C)[C@@H]1C(O)=C(C(N)=O)C(=O)[C@@]2(O)C(O)=C3C(=O)c4c(O)cccc4[C@@](C)(O)[C@H]3C[C@@H]12
MIC: 64 µg/mL

line.notation: CN(C)[C@@H]1C(O)=C(C(N)=O)C(=O)[C@@]2(O)C(O)=C3C(=O)c4c(O)c(NC(=O)CN5Cc6ccccc6C5)cc(F)c4C[C@H]3C[C@@H]12
MIC: 0.5 µg/mL

line.notation: CN(C)[C@@H]1C(O)=C(C(N)=O)C(=O)[C@@]2(O)C(O)=C3C(=O)c4c(O)c(NC(=O)CN5CCC5)cc(F)c4C[C@H]3C[C@@H]12
MIC: 0.25 µg/mL

line.notation: CN(C)[C@@H]1C(O)=C(C(N)=O)C(=O)[C@@]2(O)C(O)=C3C(=O)c4c(O)c(NC(=O)CNCC(F)(F)F)cc(F)c4C[C@H]3C[C@@H]12
MIC: 2 µg/mL

line.notation: CN(C)[C@@H]1C(O)=C(C(N)=O)C(=O)[C@@]2(O)C(O)=C3C(=O)c4c(O)c(NC(=O)CN5CCCC5)cc(F)c4C[C@H]3C[C@@H]12
MIC: 0.0156 µg/mL

line.notation: CCNCC(=O)Nc1cc(F)c2c(c1O)C(=O)C1=C(O)[C@]3(O)C(=O)C(C(N)=O)=C(O)[C@@H](N(C)C)[C@@H]3C[C@@H]1C2
MIC: 0.25 µg/mL

line.notation: CN(C)CC(=O)Nc1cc(F)c2c(c1O)C(=O)C1=C(O)[C@]3(O)C(=O)C(C(N)=O)=C(O)[C@@H](N(C)C)[C@@H]3C[C@@H]1C2
MIC: 0.125 µg/mL

line.notation: COC[C@@H]1CCCN1CC(=O)Nc1cc(F)c2c(c1O)C(=O)C1=C(O)[C@]3(O)C(=O)C(C(N)=O)=C(O)[C@@H](N(C)C)[C@@H]3C[C@@H]1C2
MIC: 2 µg/mL

line.notation: CN(C)[C@@H]1C(O)=C(C(N)=O)C(=O)[C@@]2(O)C(O)=C3C(=O)c4c(O)c(NC(=O)CNC(C)(C)C)cc(F)c4C[C@H]3C[C@@H]12
MIC: 0.25 µg/mL

line.notation: CN(C)[C@@H]1C(O)=C(C(N)=O)C(=O)[C@@]2(O)C(O)=C3C(=O)c4c(O)c(NC(=O)CNc5ccccc5)cc(F)c4C[C@H]3C[C@@H]12
MIC: 4 µg/mL

# credit: ChEMBL document CHEMBL1949621
